- Test system: Vasopressin V1
- assay-comment: Vasopressin V1 Antagonist Activity in Conscious Rats (vasopressin vasopressor response)
- Type: in vivo, rat
- Parameters: unit not given here
- condition: 10 mg/kg i.v., VAS 0.02 i.u./kg, 30 min, SHR
Lab note - cut at 20 for Average Change: 1 if strictly below, 0 if not.

Threshold test, Average Change < 20: COc1cc(Cl)ccc1C(=O)Nc1ccc(C(=O)N2Cc3cccn3Cc3ccccc32)cc1 [Example 89]
1

Threshold test, Average Change < 20: O=C(Nc1ccc(C(=O)N2Cc3cccn3Cc3ccccc32)cc1)C1CCCCC1 [Example 358]
0

Threshold test, Average Change < 20: COc1ccccc1C(=O)Nc1ccc(C(=O)N2Cc3cccn3Cc3ccccc32)cc1 [Example 2]
1

Threshold test, Average Change < 20: CCOc1ccccc1C(=O)Nc1ccc(C(=O)N2Cc3cccn3Cc3ccccc32)cc1 [Example 84]
1

Threshold test, Average Change < 20: Cc1ccccc1C(=O)Nc1ccc(C(=O)N2Cc3ccc(Cl)n3Cc3ccccc32)cc1 [Example 41]
0

Threshold test, Average Change < 20: Cc1cc(C(=O)N2Cc3cccn3Cc3ccccc32)ccc1NC(=O)c1ccc(Cl)cc1Cl [Example 99]
1

Threshold test, Average Change < 20: Cc1ccccc1C(=O)N(C)c1ccc(C(=O)N2Cc3cccn3Cc3ccccc32)cc1 [Example 384]
1

Threshold test, Average Change < 20: O=C(Nc1ccc(C(=O)N2Cc3cccn3Cc3ccccc32)cc1)c1sc2ccccc2c1Cl [Example 82]
0

Threshold test, Average Change < 20: O=C(Nc1ccc(C(=O)N2Cc3cccn3Cc3ccccc32)cc1)c1ccc(Cl)cc1Cl [Example 6]
1

Threshold test, Average Change < 20: O=C(Nc1ccc(C(=O)N2Cc3cccn3Cc3ccccc32)cc1)c1cccc(F)c1F [Example 1]
1

Threshold test, Average Change < 20: Cc1c(CC(=O)Nc2ccc(C(=O)N3Cc4cccn4Cc4ccccc43)cc2)sc2ccccc12 [Example 87]
0

Threshold test, Average Change < 20: O=C(Nc1ccc(C(=O)N2Cc3cccn3Cc3ccccc32)cc1)c1ccccc1Cl [Example 7]
1

Threshold test, Average Change < 20: O=C(Nc1ccc(C(=O)N2Cc3cccn3Cc3ccccc32)cc1)c1ccc2[nH]ccc2c1 [Example 117]
0

Threshold test, Average Change < 20: Cc1ccccc1C(=O)Nc1ccc(C(=O)N2Cc3cccn3-c3ccccc32)cc1 [Example 14]
0

Threshold test, Average Change < 20: O=C(Cc1ccccc1F)Nc1ccc(C(=O)N2Cc3cccn3Cc3ccccc32)cc1 [Example 357]
1

Threshold test, Average Change < 20: Cc1ccccc1CC(=O)Nc1ccc(C(=O)N2Cc3cccn3Cc3ccccc32)cc1 [Example 93]
1

Threshold test, Average Change < 20: Cc1ccccc1NC(=O)Nc1ccc(C(=O)N2Cc3cccn3Cc3ccccc32)cc1 [Example 116]
0

###

- test-system: Rat Kidney Medullary V2 Receptors (Rattus norvegicus)
- Construct: Medullary tissues from rat kidneys are dissected out; from tissue; host or cells: rat kidney medulla membranes
- Sequence (Q00788 whole entry): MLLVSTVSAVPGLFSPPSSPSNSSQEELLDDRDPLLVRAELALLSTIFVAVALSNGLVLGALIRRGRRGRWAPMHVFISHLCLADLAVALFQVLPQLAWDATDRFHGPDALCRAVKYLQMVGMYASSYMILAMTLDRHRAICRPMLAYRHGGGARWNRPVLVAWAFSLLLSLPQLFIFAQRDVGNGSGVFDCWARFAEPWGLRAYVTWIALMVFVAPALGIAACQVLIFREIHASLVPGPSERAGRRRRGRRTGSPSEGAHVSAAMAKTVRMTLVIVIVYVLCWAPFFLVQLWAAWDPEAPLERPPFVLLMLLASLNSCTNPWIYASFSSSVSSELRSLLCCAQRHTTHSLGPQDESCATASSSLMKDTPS
- assay-comment: Binding Assay to Rat Kidney Medullary V2 Receptors
- condition: rat kidney medulla membranes; read-out: V2 IC50
pIC50: −log10 of the molar value.
Decide by pIC50: equal to or exceeding 8 means yes, less means no.

Is pIC50 for CCOC(=O)c1ccc2n1Cc1ccccc1N(C(=O)c1ccc(NC(=O)c3ccc(Cl)cc3Cl)c(C)c1)C2 at or above 8?
no

Is pIC50 for CN(C)CCSC(C(=O)Nc1ccc(C(=O)N2Cc3cccn3Cc3ccccc32)cc1)c1ccccc1 (centres unmarked) at or above 8?
no

Is pIC50 for O=Cc1ccc2n1Cc1ccccc1N(C(=O)c1ccc(NC(=O)c3ccc(Cl)cc3Cl)cc1)C2 at or above 8?
no

Is pIC50 for O=C(Nc1ccc(C(=O)N2Cc3cccn3-c3ccccc32)cc1)c1ccc(Cl)cc1Cl at or above 8?
no

Is pIC50 for O=C(Nc1ccc(C(=O)N2Cc3cccn3Cc3ccccc32)cc1)c1ccccc1F at or above 8?
no

Is pIC50 for Cc1ccccc1C(=O)N(C)c1ccc(C(=O)N2Cc3cccn3Cc3ccccc32)cc1 at or above 8?
no

Is pIC50 for O=C(Nc1ccc(C(=O)N2Cc3cccn3Cc3ccccc32)cc1)c1cccc(F)c1F at or above 8?
no

Is pIC50 for O=C(Nc1ccc(C(=O)N2Cc3ccc(CO)n3Cc3ccccc32)cc1)c1ccc(Cl)cc1Cl at or above 8?
yes

Is pIC50 for Cc1ccccc1C(=O)Nc1ccc(C(=O)N2Cc3cccn3Cc3ccccc32)cc1 at or above 8?
yes

Is pIC50 for Cc1ccccc1C(=O)Nc1ccc(C(=O)N2Cc3cccn3C(=O)c3ccccc32)cc1 at or above 8?
no

Is pIC50 for O=C(c1ccc(NS(=O)(=O)Cc2ccccc2)cc1)N1Cc2cccn2Cc2ccccc21 at or above 8?
no

Is pIC50 for O=C(Nc1ccc(C(=O)N2Cc3cccn3Cc3ccccc32)cc1)C(Cl)c1ccccc1 (centres unmarked) at or above 8?
no

Is pIC50 for Cc1ccccc1C(=O)Nc1ccc(C(=O)N2Cc3cccn3Cc3sccc32)cc1 at or above 8?
no

Is pIC50 for Cc1ccc(C(=O)Nc2ccc(C(=O)N3Cc4cccn4Cc4ccccc43)cc2)s1 at or above 8?
no

Is pIC50 for Cc1ccccc1C(=O)Nc1ccc(C(=O)N2Cc3ccc(CN4CCOCC4)n3Cc3ccccc32)cc1 at or above 8?
no

Is pIC50 for O=C(Cc1ccccc1Cl)Nc1ccc(C(=O)N2Cc3cccn3Cc3ccccc32)cc1 at or above 8?
yes

Is pIC50 for Cc1ccccc1C(=O)Nc1ccc(C(=O)N2Cc3ccc(CN(C)C)n3Cc3ccccc32)cc1 at or above 8?
no

Is pIC50 for NC(=O)CNC(C(=O)Nc1ccc(C(=O)N2Cc3cccn3Cc3ccccc32)cc1)c1ccccc1 (centres unmarked) at or above 8?
no

Is pIC50 for Cc1ccccc1C(=O)Nc1ccc(C(=O)N2Cc3ccc(CN4CCN(Cc5ccccc5)CC4)n3Cc3ccccc32)cc1 at or above 8?
no

Is pIC50 for Cc1cccc(C(=O)Nc2ccc(C(=O)N3Cc4cccn4Cc4ccccc43)cc2)c1C at or above 8?
yes

Is pIC50 for O=C(Nc1ccc(C(=O)N2Cc3cccn3Cc3ccccc32)cc1)C1CCCO1 (centres unmarked) at or above 8?
no

Is pIC50 for O=C(Nc1ccc(C(=O)N2Cc3cccn3Cc3ccccc32)cc1)c1ccc(Cl)cc1Cl at or above 8?
yes

Is pIC50 for O=C(Nc1ccc(C(=O)N2Cc3cccn3Cc3ccccc32)cc1)c1sccc1Cl at or above 8?
no

###

- System: Vasopressin V1
- assay-comment: Vasopressin V1 Antagonist Activity in Conscious Rats (vasopressin vasopressor response)
- Format: in vivo, rat
- Design: unit not given here
- condition: 20 mg/kg i.v., VAS 0.02 i.u./kg, 120 min, SHR
test-readout: Average Change
Enter the number alone.

Request body: readout Average Change, system Vasopressin V1, query O=C(Nc1ccc(C(=O)N2Cc3cccn3Cc3ccccc32)cc1)c1ccc2[nH]ccc2c1 [Example 117] . Return the value.
38

Request body: readout Average Change, system Vasopressin V1, query Cc1c(CC(=O)Nc2ccc(C(=O)N3Cc4cccn4Cc4ccccc43)cc2)sc2ccccc12 [Example 87] . Return the value.
35.5

Request body: readout Average Change, system Vasopressin V1, query Cc1cc(C(=O)N2Cc3cccn3Cc3ccccc32)ccc1N [Example 95] . Return the value.
28.5

Request body: readout Average Change, system Vasopressin V1, query O=C(Nc1ccc(C(=O)N2Cc3cccn3Cc3ccccc32)cc1)c1sc2ccccc2c1Cl [Example 82] . Return the value.
38.5

###

- Test system: Vasopressin V1
- assay-comment: Vasopressin V1 Antagonist Activity in Conscious Rats (vasopressin vasopressor response)
- Assay type: in vivo, rat
- Design: unit not given here
- condition: 10 mg/kg i.v., VAS 0.02 i.u./kg, 120 min, SHR
test-readout: Average Change
Enter the number alone.

Bench note: what Average Change did Cc1ccccc1C(=O)Nc1ccc(C(=O)N2Cc3cccn3-c3ccccc32)cc1 show?
39.5

Bench note: what Average Change did Cc1cc(C(=O)N2Cc3cccn3Cc3ccccc32)ccc1NC(=O)c1ccc(Cl)cc1Cl show?
17

Bench note: what Average Change did Cc1ccccc1NC(=O)Nc1ccc(C(=O)N2Cc3cccn3Cc3ccccc32)cc1 show?
40

Bench note: what Average Change did COc1cc(Cl)ccc1C(=O)Nc1ccc(C(=O)N2Cc3cccn3Cc3ccccc32)cc1 show?
27.5

Bench note: what Average Change did O=C(Nc1ccc(C(=O)N2Cc3cccn3Cc3ccccc32)cc1)c1ccccc1C(F)(F)F show?
17.5

Bench note: what Average Change did Cc1cc(C(=O)N2Cc3cccn3Cc3ccccc32)ccc1N show?
17.5

Bench note: what Average Change did Cc1ccccc1CC(=O)Nc1ccc(C(=O)N2Cc3cccn3Cc3ccccc32)cc1 show?
7

Bench note: what Average Change did O=C(Nc1ccc(C(=O)N2Cc3cccn3Cc3ccccc32)cc1)c1ccccc1Cl show?
13

###

- System: Vasopressin V1
- assay-comment: Vasopressin V1 Antagonist Activity in Conscious Rats (vasopressin vasopressor response)
- Type: in vivo, rat
- condition: 10 mg/kg i.v., VAS 0.02 i.u./kg, 30 min, SHR
test-readout: % Inhibition
Write the quantity with the unit trailing the number.

Request body: readout % Inhibition, system Vasopressin V1, query O=C(Nc1ccc(C(=O)N2Cc3cccn3Cc3ccccc32)cc1)c1ccccc1Cl [Example 7] . Return the value.
87%

Request body: readout % Inhibition, system Vasopressin V1, query O=C(Nc1ccc(C(=O)N2Cc3cccn3Cc3ccccc32)cc1)c1ccc2[nH]ccc2c1 [Example 117] . Return the value.
-12%

Request body: readout % Inhibition, system Vasopressin V1, query Cc1ccccc1CC(=O)Nc1ccc(C(=O)N2Cc3cccn3Cc3ccccc32)cc1 [Example 93] . Return the value.
94%

Request body: readout % Inhibition, system Vasopressin V1, query O=C(Nc1ccc(C(=O)N2Cc3cccn3Cc3ccccc32)cc1)c1sc2ccccc2c1Cl [Example 82] . Return the value.
-5%

Request body: readout % Inhibition, system Vasopressin V1, query Cc1cc(C(=O)N2Cc3cccn3Cc3ccccc32)ccc1NC(=O)c1ccc(Cl)cc1Cl [Example 99] . Return the value.
64%

Request body: readout % Inhibition, system Vasopressin V1, query Cc1ccsc1C(=O)Nc1ccc(C(=O)N2Cc3cccn3Cc3ccccc32)cc1 [Example 5] . Return the value.
72%

Request body: readout % Inhibition, system Vasopressin V1, query Cc1ccccc1NC(=O)Nc1ccc(C(=O)N2Cc3cccn3Cc3ccccc32)cc1 [Example 116] . Return the value.
24%

Request body: readout % Inhibition, system Vasopressin V1, query O=C(Cc1ccccc1F)Nc1ccc(C(=O)N2Cc3cccn3Cc3ccccc32)cc1 [Example 357] . Return the value.
68%
